Test system: 30145 (donor line of iPSC-derived cardiomyocytes)
PROCEDURE_TEXT: POD (EC05) for decrease in beat frequency (negative chronotrope) vs vehicle; higher = less potent (higher point of departure)
TEST_CONTEXT: exposure time: 90 min
MEASUREMENT_NAME: POD vs vehicle

// known answers, use as guide
NC(=O)C(F)(F)C(F)(F)C(F)(F)C(F)(F)F [Nonafluoropentanamide]
> 100 µM
OCC(O)CC(F)(F)C(F)(F)C(F)(F)C(F)(F)C(F)(F)C(F)(F)C(F)(F)C(F)(F)F (stereo not given) [1-(Perfluorofluorooctyl)propane-2,3-diol]
> 100 µM
O=C(O)C(F)(F)C(F)(F)C(F)(F)OC(F)(F)F [Perfluoro(4-methoxybutanoic)_acid]
> 100 µM
OCCC(F)(F)C(F)(F)C(F)(F)C(F)(F)C(F)(F)C(F)(F)C(F)(F)C(F)(F)F [8:2 Fluorotelomer alcohol]
> 100 µM
O=C(CC(=O)C(F)(F)C(F)(F)F)C(F)(F)F [3H,3H-Perfluoro-2,4-hexanedione]
> 100 µM

input: Given CC(O)C(F)(F)C(F)(F)F (stereo not given) [1-Pentafluoroethylethanol] , state its recorded POD vs vehicle.
output: > 100 µM

input: Query: POD vs vehicle; subject: O=C(O)C(F)(F)C(F)(F)C(F)(F)C(F)(F)C(=O)O [Octafluoroadipic_acid]
output: > 100 µM

input: Which POD vs vehicle value is on record for O=C(O)C(F)(F)C(F)(F)C(F)(F)OC(F)(C(F)(F)F)C(F)(F)F [Perfluoro-4-isopropoxybutanoic_acid] ?
output: > 100 µM

input: Query (molecule): O=C(O)C(F)(F)C(F)(F)C(F)(F)C(F)(F)C(F)(F)C(F)(F)C(F)(F)C(F)(F)C(F)(F)F [Perfluorodecanoic_acid] ; field requested: POD vs vehicle
output: > 100 µM

input: Look at this molecule and give its reported POD vs vehicle. O=C(O)C(F)(F)C(F)(F)C(F)(F)C(F)(F)F [Perfluoropentanoic_acid]
output: > 100 µM

input: Look up POD vs vehicle for this molecule: O=S(=O)(O)CCC(F)(F)C(F)(F)C(F)(F)C(F)(F)F [4:2 Fluorotelomer sulfonic acid]
output: > 100 µM

input: Query: POD vs vehicle; subject: CN(CCO)S(=O)(=O)C(F)(F)C(F)(F)C(F)(F)C(F)(F)C(F)(F)C(F)(F)C(F)(F)C(F)(F)F [N-Methyl-N-(2-hydroxyethyl)perfluorooctanesulfonamide]
output: > 100 µM

input: Return reported POD vs vehicle; argument: OCC(F)(F)C(F)(F)C(F)(F)C(F)F [1H,1H,5H-Perfluoropentanol]
output: > 100 µM

input: # query: POD vs vehicle of entry O=C(O)C(F)(F)C(F)(F)C(F)(F)C(F)(F)C(F)(F)C(F)(F)F [Perfluoroheptanoic_acid]
output: > 100 µM

input: Item NC(=O)C(F)(F)C(F)(F)C(F)(F)F [Heptafluorobutyramide] has what recorded POD vs vehicle?
output: > 100 µM

* * *

System: 20032 (donor line of iPSC-derived cardiomyocytes)
PROCEDURE_TEXT: POD (EC05) for decrease in beat frequency (negative chronotrope) vs vehicle; higher = less potent (higher point of departure)
TEST_CONTEXT: exposure time: 90 min
MEASUREMENT_NAME: POD vs vehicle (µM)
Give the quantity in µM, number only.

NC(O)(C(F)(F)F)C(F)(F)F
80.9
O=S(=O)(O)C(F)(F)C(F)(F)C(F)(F)C(F)(F)C(F)(F)C(F)(F)F
84.5

Okay, next one:
input: What measured POD vs vehicle goes with NS(=O)(=O)C(F)(F)C(F)(F)C(F)(F)C(F)(F)C(F)(F)C(F)(F)F [Perfluorohexanesulfonamide] ?
output: 13.4
